# Protocol description: in vitro
# Condition details: human, hela cells, % viability
Readout name: viability at 28.5 h, 10 µM (%)
Answers are plain numbers, in %.

Worked cases, answers included:
O=C1N=C(NCc2ccccc2F)OC12CCN(Cc1ccccc1)CC2 [CBK115688] ... 96.2
Cc1cccn2c(=O)cc(CN3CCn4c(nnc4C4CC4)C3)nc12 [CBK305232] ... 102
O=C(O)CCC(=O)Nc1ccc(C(=O)N2CCCc3ccccc32)cc1 [CBK269118] ... 114
CCN1CCN(c2nc(N)c3ccccc3n2)CC1 [CBK268561C] ... 82.4
CCN(CC)CCN1C(=O)C(O)=C(C(=O)c2ccc(Cl)cc2)C1c1cccc(Br)c1 (stereo not drawn) [CBK265165] ... 112
O=C(NCCc1ccccn1)N1CCCN(Cc2cccs2)CC1 [CBK305283] ... 80.5
Cc1ccc(-c2cc(C3CCN(C(=O)c4cnn(C)c4)C3)[nH]n2)cc1 (stereo not drawn) [CBK285266] ... 85.4
CCc1nn(CC(=O)NC2CCCC2)c(=O)c2cc3sccc3n12 [CBK284077] ... 84

Kindly review the next molecule as well.
Return the recorded viability at 28.5 h, 10 µM value; entry: COC(=O)N1CCCCC1C(=O)NCCc1nc(C)cc(C(F)(F)F)n1 (stereo not drawn) [CBK306752]
94.2

###

# Protocol description: in vitro
# Condition details: human, hela cells, % viability
Provide the recorded viability at 28.5 h, 10 µM for the entries that follow.
One number for each entry, in %.

Worked cases, answers included:
CC(C)N(Cc1cnn(C)c1)C(=O)c1cc(C2CC2)nc2ccccc12 ... 103
CCS(=O)(=O)NC1CCN(c2nc(C(F)(F)F)nc3[nH]cnc23)CC1 ... 86.8
O=C(NC1CC1)c1ccsc1NC(=O)C1C2C=CC(C2)C1C(=O)O (centres unmarked) ... 98.7
O=C(O)C1CC=C(Cl)CC1C(=O)Nc1ccc(Cl)cc1[N+](=O)[O-] (centres unmarked) ... 101
Cc1ccc(CSCCNS(=O)(=O)c2cccc([N+](=O)[O-])c2)cc1 ... 108
Cc1ccc2cc(CN3CCCC(N)CC3)c(N3CCOCC3)nc2c1 (centres unmarked) ... 83.5

// each compound listed below needs its viability at 28.5 h, 10 µM
1. Cc1csc(-c2ccc(C(=O)N3CCN(C)CC3)c(N3CCOCC3)n2)c1
2. CC(Cc1cccs1)NC(=O)c1cc2c([nH]c1=O)CCCCC2 (centres unmarked)
3. COc1ccc(CC(=O)N2CCC(C3OCc4cc(-c5ccc(C(=O)N(C)C)cc5)ccc4O3)CC2)cc1 (centres unmarked)
4. CCOC(=O)c1nc(C2CCN(c3cccc(F)c3C#N)CC2)n[nH]1

1: 90.8; 2: 109; 3: 88.2; 4: 119

###

# Protocol description: in vitro
# Condition details: human, hela cells, % viability
Provide the recorded viability at 28.5 h, 10 µM for the entries that follow.

COc1ccc([C@@]23CC[C@@H](NC(=O)Nc4cccc(Br)c4)C[C@@H]2N(C)CC3)cc1OC [CBK038225T] ... 91.4%
COc1ccc(C)cc1N(CC(=O)Nc1ccc(F)c(F)c1)S(C)(=O)=O ... 96.5%
Clc1nccnc1NCCOc1ccccc1 ... 93.8%

// each molecule listed below needs its viability at 28.5 h, 10 µM
1. O=C1NC2(CCCCCC2)C(=O)N1Cc1coc(-c2cccs2)n1
2. COc1ncc(-c2nccnc2N[C@@H]2CCN(Cc3ccccc3)C2)c(OC)n1
3. Cc1cccn2c(CN3CC(O)C3)c(C(=O)N3CCOCC3)nc12
4. CC(=O)Nc1cccc(C(=O)OCC(=O)N2CCC(C)CC2)c1
5. CC(=O)N1c2ccccc2C(C)=CC1C1CCCC(=O)C1 (stereo not drawn)
6. COc1ccc(CCNC2CCN(Cc3ccccc3)CC2c2ccccc2)cc1OC (stereo not drawn)
7. Cc1cc(N2CCOC3(CCN(C(=O)c4ccc5ccccc5c4)CC3)C2)nc(N)n1 [CBK161125A]
8. CN(C(=O)c1cc[nH]n1)C1CCN(c2ncnc3ccccc23)CC1

["94.2%", "101%", "104%", "98.3%", "101%", "92.8%", "93.2%", "79%"]

// each molecule listed below needs its viability at 28.5 h, 10 µM
1. CCOC(=O)C1CCCN(Cc2c(C)nn(C)c2Cl)C1 (stereo not drawn)
2. CC(C)(C)OC(=O)NCc1ccc(CNCc2cc(F)cc(F)c2)cc1
3. CN1C(=O)COc2ccccc2C/C=C/C[C@@H]2[C@H]1CCCN2S(=O)(=O)c1cccnc1
4. COc1cc(C)nc(NC(=O)COc2ccc(Cl)cc2C)n1
5. O=C(c1cccnc1)C1CCN(C(=O)C2CCCC2)CC1

92.4%
107%
102%
106%
96.2%

// each molecule listed below needs its viability at 28.5 h, 10 µM
1. Cn1cnc2cc(NC(=O)NCCN3CCCC(CO)C3)ccc21 (stereo not drawn)
2. CC(C)(C)NC(=O)[C@@H]1CNC[C@]12Cc1ccccc1C(=O)N2
3. COc1ccc(CC(=O)Nc2nc(OC)cnc2/C=C\c2ccccc2)cc1
4. Cc1cc(-c2nccnc2NCCCN2CCCC2=O)cc(C)c1O
5. CCOC(=O)C1(C2CCCCC2)CCN(C(=O)CCC(=O)O)CC1

1: 107%; 2: 103%; 3: 98.7%; 4: 94.1%; 5: 95.9%

###

Provide the recorded viability at 28.5 h, 10 µM for the entries that follow.
# Protocol description: in vitro
# Condition details: human, hela cells, % viability
Answers are plain numbers, in %.

O=C(O)C1CCN(C(=O)CSc2nc3ccccc3o2)CC1 [CBK286557] ... 91.6
CC(C(=O)Nc1sc2c(c1C(=O)NCc1ccco1)CCCC2)N1C(=O)c2ccccc2C1=O (stereo not shown) [CBK265603] ... 86.6
CCc1nn(CC(=O)N(CC)CC)c(=O)c2cc3occc3n12 [CBK283656] ... 91

// each compound listed below needs its viability at 28.5 h, 10 µM
1. COc1cccc(NC(=O)CCCC(=O)O)c1 [CBK261324]
2. CC(=O)c1ccc(S(=O)(=O)NCc2ccc(C(F)(F)F)cc2)cc1 [CBK044314]
3. CCCCc1ccc(-c2cnc3ncccc3c2N)cc1 [CBK083683]
4. O=C(O)CCCNc1ncnc2c1oc1ccccc12 [CBK287573]

[98.1, 108, 96.2, 101]

###

# Protocol description: in vitro
# Condition details: human, hela cells, % viability
Readout name: viability at 28.5 h, 10 µM
Hi, when you answer, please include the unit after the number. Thanks!

O=C(c1cccnc1)N1CCN(S(=O)(=O)c2ccccc2[N+](=O)[O-])CC1 [CBK264227] ... 97%

// each molecule listed below needs its viability at 28.5 h, 10 µM
1. CC(=O)Nc1ccc(NC(=O)c2cnc(-c3ccc(F)cc3)c(-c3ccco3)c2)cc1 [CBK037977]
2. O=C(O)c1cc(C(=O)O)c(-c2ccccc2)c(C(=O)O)c1 [CBK261101]
3. CN(C)CCNC(=O)c1ccc(-c2ccccc2S(=O)(=O)Nc2ccc(C(=O)O)c(O)c2)cc1 [CBK174050]

["98.8%", "93.7%", "106%"]

###

# Protocol description: in vitro
# Condition details: human, hela cells, % viability
Readout name: viability at 28.5 h, 10 µM (%)
One number for each entry, in %.

Worked cases, answers included:
Cc1ccccc1-c1nc(S(=O)(=O)c2ccc(Cl)cc2)c(NCC2CCCO2)o1 (centres unmarked) [CBK267668] ... 113
OC(COc1cccc(C(F)(F)F)c1)CN1CCN(c2nc(-c3ccccc3)ns2)CC1 (centres unmarked) [CBK074678] ... 93
CS(=O)(=O)Nc1ccc(CC#N)cc1 [CBK038145] ... 114
Nc1nc(OCc2ccc3c(c2)OCO3)cnc1/C=C/c1ccccc1 [CBK145123] ... 92.7

Kindly review the next molecule as well.
Return the recorded viability at 28.5 h, 10 µM value; entry: Nc1nc(N)c([C@H]2C[C@@H](O)[C@@H](CO)O2)nc1Cl [CBK201326]
103

###

# Protocol description: in vitro
# Condition details: human, hela cells, % viability
viability at 28.5 h, 10 µM strictly less than 90% = Y. Otherwise N.

c1ccc2oc(SCCCCSc3nc4ccccc4o3)nc2c1 ... N
CN1CCN(c2nccnc2-c2ccco2)CC1 ... Y
Cc1ccc(OC(C)C(=O)Nc2cc(C(C)(C)C)on2)cc1C (centres unmarked) ... N

Confirm or reject: viability at 28.5 h, 10 µM of COc1cccc2cc(C3CN(C(=O)C(C)(C)NC(=O)OC(C)(C)C)CC3C(=O)O)oc12 (centres unmarked) lies strictly below 90%
N

Confirm or reject: viability at 28.5 h, 10 µM of `COc1ccc(OC[C@@H](N)C(C)C)cc1` lies strictly below 90%
N

Confirm or reject: viability at 28.5 h, 10 µM of `O=C(Nc1cccc2cccnc12)c1sc2ccccc2c1Cl` lies strictly below 90%
N

Values compiled from paper PMC12040169.
